Would you mind telling me the reported pIC50 of each entry?
In simple prose, pIC50 is minus the logarithm base ten of a concentration in moles per litre.

(Q) Request: pIC50, test system DYRK1A (Homo sapiens, UniProt Q13627), entry COc1ccc2c3ccnc(C)c3n(CCCCc3noc(N)n3)c2c1 [Compound 20-38c]
(A) 6.99

(Q) Can you look up pIC50 on DYRK1A (Homo sapiens, UniProt Q13627) for C#CCCn1c2cc(OC)ccc2c2ccnc(C)c21 [Compound 20-23b] ?
(A) 7.48

(Q) Which measured pIC50 belongs to COc1ccc2c3ccnc(C)c3n(CCC(C)(C)C(N)=O)c2c1 , tested on DYRK1A (Homo sapiens, UniProt Q13627)?
(A) 7.70

(Q) Record lookup: for DYRK1A (Homo sapiens, UniProt Q13627), what pIC50 belongs to C#CCn1c2cc(OC)ccc2c2ccnc(C)c21 [Compound 20-23a] ?
(A) 8.10

(Q) Find the measured pIC50: item COc1ccc2c3ccnc(C)c3n(CCc3noc(N)n3)c2c1 [Compound 20-38b] , target or system DYRK1A (Homo sapiens, UniProt Q13627).
(A) 7.18

(Q) Any idea what pIC50 came out for C=CCn1c2cc(OC)ccc2c2ccnc(C)c21 on DYRK1A (Homo sapiens, UniProt Q13627)?
(A) 7.38

(Q) Please tell me: pIC50 of CCCC(C)NC(=O)C(C)(C)CCn1c2cc(OC)ccc2c2ccnc(C)c21 (centres unmarked) [Compound 20-10l] , system DYRK1A (Homo sapiens, UniProt Q13627)?
(A) 7.11

(Q) Quick check: pIC50 on DYRK1A (Homo sapiens, UniProt Q13627), item COCCn1cc(CCCn2c3cc(OC)ccc3c3ccnc(C)c32)nn1 [Compound 20-24b] ?
(A) 6.36

(Q) Fill in the recorded pIC50 for this molecule, with DYRK1A (Homo sapiens, UniProt Q13627) as test system: COc1ccc2c3ccnc(C)c3n(Cc3ccccc3)c2c1
(A) 6.56

(Q) // fetch DYRK1A (Homo sapiens, UniProt Q13627) pIC50 for COc1ccc2c3ccnc(C)c3n(Cc3noc(N)n3)c2c1 [Compound 20-38a]
(A) 6.86

(Q) Requested read-out pIC50, target or system DYRK1A (Homo sapiens, UniProt Q13627), entry COc1ccc2c3ccnc(C)c3n(CCc3ccccc3)c2c1
(A) 7.51
